Biological target: human HER4 (human, UniProt Q15303 26-1308)
Sequence (Q15303 26-1308 limits assumed): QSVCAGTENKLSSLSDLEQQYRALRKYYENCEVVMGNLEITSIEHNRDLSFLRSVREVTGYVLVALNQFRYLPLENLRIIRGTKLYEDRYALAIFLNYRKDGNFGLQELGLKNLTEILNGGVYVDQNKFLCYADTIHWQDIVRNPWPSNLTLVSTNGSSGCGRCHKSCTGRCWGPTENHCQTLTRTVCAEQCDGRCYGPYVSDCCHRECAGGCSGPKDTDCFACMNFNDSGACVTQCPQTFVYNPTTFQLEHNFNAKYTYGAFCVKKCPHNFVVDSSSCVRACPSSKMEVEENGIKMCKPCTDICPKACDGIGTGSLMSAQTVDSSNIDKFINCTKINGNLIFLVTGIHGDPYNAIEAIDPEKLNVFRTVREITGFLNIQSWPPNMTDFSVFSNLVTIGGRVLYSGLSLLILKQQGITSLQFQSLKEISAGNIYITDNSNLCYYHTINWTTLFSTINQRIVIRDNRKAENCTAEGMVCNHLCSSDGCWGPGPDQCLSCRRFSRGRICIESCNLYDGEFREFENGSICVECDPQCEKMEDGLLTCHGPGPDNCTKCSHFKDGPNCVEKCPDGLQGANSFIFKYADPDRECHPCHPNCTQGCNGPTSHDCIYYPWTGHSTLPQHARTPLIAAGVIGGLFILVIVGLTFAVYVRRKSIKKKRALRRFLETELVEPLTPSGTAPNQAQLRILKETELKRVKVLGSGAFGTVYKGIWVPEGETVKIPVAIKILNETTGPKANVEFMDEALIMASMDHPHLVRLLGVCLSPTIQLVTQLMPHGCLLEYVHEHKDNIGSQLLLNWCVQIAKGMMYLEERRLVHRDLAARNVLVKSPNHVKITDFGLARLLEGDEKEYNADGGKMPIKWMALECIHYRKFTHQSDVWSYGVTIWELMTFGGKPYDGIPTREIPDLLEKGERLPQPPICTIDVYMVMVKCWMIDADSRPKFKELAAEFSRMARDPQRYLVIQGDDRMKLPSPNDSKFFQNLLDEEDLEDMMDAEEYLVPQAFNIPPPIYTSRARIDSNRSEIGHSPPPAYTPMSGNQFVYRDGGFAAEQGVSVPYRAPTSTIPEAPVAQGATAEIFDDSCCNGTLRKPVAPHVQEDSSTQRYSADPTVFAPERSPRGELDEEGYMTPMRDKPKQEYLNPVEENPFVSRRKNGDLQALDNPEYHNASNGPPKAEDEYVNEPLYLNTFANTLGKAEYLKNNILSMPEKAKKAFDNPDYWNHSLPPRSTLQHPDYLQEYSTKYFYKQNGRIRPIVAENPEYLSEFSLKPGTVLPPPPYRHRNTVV
Assay: FACS CHO-HER4, 667 nM
measuredAttribute: MCF

binder: 23F05 (VHH) VHH: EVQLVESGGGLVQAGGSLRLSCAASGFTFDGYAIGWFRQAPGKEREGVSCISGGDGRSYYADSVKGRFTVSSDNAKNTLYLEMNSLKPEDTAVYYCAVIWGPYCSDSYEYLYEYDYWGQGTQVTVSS
dataValue: 101

binder: 21B02 (VHH) VHH: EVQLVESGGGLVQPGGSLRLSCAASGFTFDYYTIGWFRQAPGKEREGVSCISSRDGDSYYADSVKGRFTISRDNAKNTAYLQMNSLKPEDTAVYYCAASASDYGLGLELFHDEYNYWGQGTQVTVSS
dataValue: 119

binder: 17B05 (VHH, also called HER3MS17B05; HER3MS017B05) VHH: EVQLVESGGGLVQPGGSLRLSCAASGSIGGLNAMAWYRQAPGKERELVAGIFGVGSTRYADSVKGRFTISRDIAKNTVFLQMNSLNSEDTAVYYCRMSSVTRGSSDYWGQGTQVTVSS
dataValue: 90
